- experimental-system: T1, hANG2-His (human, UniProt O15123 19-496, limits assumed)
- T1 construct: also called 人源ANG2; ANGPT2; not shown: C-terminal His tag
- T1 sequence (looked up): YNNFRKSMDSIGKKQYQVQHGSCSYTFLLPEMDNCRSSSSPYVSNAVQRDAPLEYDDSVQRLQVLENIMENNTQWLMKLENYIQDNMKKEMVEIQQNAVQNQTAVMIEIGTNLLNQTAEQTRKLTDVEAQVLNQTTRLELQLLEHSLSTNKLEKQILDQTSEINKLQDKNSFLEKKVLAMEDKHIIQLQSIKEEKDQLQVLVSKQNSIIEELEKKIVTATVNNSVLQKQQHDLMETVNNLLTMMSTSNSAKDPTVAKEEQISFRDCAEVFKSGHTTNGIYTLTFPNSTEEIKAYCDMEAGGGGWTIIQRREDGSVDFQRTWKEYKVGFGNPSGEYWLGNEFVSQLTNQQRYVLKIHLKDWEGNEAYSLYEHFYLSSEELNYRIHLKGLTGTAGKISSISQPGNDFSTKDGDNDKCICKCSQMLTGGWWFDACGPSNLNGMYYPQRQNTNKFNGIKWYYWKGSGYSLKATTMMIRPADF
- assay: BLI (Gator), antibody captured on sensor, hANG2-His 100/50/25 nM
reported-property: koff (s⁻¹)
A number alone suffices; assume s⁻¹.

So what does the record say about koff for 抗体78A74-21 (antibody, IgG1, V domains shown) VH: QVQLVESGGGLVKPGGSLRLSCAASGFTFSSYSMNWVRQAPGKGLEWVAVISYDGSNKYYADSVKGRFTISRDNSKNTLYLQMNSLRAEDTAVYYCAKETLDGYTAGYYYGMDVWGQGTTVTVSS VL: EIVLTQSPATLSLSPGERATLSCRASQSVGSYLAWYQQKPGQAPRLLIYDASNRATGIPARFSGSGSGTDFTLTISSLEPEDFAVYYCQQRSNGPPEWTFGQGTKVEIK ?
0.000132
